Sourced from patent US11820747B2

Target: PPARG/RXRA LBD heterodimer (Homo sapiens, UniProt P37231)
Construct: His-TEV-Q203-Y477; Uniprot ID P37231-2; made in house; host or cells: E. coli
Sequence (P37231 203-477 isoform P37231-2): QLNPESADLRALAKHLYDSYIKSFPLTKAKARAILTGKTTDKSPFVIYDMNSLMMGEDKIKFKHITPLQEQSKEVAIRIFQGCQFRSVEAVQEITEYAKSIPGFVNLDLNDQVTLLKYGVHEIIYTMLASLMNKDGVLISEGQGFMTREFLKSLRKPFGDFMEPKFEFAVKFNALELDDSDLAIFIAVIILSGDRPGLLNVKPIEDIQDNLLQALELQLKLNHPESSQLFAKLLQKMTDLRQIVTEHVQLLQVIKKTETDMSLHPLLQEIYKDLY
Sequence (P19793 228-462 partner limits assumed): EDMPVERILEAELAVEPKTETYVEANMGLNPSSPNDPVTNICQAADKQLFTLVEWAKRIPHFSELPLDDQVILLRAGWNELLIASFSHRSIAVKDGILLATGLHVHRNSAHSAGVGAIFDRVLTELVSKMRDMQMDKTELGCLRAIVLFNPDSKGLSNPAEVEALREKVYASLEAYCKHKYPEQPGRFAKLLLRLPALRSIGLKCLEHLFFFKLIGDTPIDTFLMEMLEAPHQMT
Assay: PPARγ-MED1 blockade assay (TR-FRET, biotinylated MED1 LxxLL peptide)
Type: binding
Conditions: TR-FRET, 80 nM Rosiglitazone, 3 hours incubation
# maps each entry to its EC50
Readout Name: EC50

Compound: CS(=N)(=O)c1ccc(C#N)cc1-c1cc(=O)c2c(F)cc(F)cc2[nH]1 (stereo not shown)
Readout Name: EC50
Result: 100 to 1000 nM

Compound: Cn1cc(-c2c(F)cc3[nH]c(-c4cc(C#N)ccc4S(C)(=O)=O)cc(=O)c3c2F)cn1
Readout Name: EC50
Result: 10 to 100 nM

Compound: CCS(=O)(=O)c1ccc(C#N)cc1-c1cc(=O)c2c(F)cc(F)cc2[nH]1
Readout Name: EC50
Result: 100 to 1000 nM

Compound: CS(=O)(=O)c1ccc(C#N)cc1-c1cc(=O)c2c(F)cc(Cl)cc2[nH]1
Readout Name: EC50
Result: 10 to 100 nM

###

Target: PPARG/RXRA LBD heterodimer (Homo sapiens)
Construct: His-TEV-Q203-Y477; Uniprot ID P37231-2; made in house; host or cells: E. coli
Sequence (P37231 203-477 isoform P37231-2): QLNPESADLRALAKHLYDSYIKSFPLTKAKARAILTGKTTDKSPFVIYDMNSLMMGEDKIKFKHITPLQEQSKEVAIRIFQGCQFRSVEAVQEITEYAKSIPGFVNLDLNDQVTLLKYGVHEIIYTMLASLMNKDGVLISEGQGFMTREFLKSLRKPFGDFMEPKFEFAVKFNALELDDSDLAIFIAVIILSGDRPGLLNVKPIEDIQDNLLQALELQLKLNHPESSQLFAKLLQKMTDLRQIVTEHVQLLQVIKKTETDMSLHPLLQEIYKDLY
Sequence (P19793 228-462 partner limits assumed): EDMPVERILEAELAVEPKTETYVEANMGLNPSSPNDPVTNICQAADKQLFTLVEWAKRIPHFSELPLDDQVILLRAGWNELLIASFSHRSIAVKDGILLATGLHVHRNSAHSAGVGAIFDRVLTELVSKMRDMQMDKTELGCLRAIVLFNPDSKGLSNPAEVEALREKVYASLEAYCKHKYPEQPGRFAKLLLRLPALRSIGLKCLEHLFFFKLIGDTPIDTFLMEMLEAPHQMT
Experiment: PPARγ-MED1 blockade assay (TR-FRET, biotinylated MED1 LxxLL peptide)
Format: binding
Conditions: TR-FRET, 80 nM Rosiglitazone, 3 hours incubation
Readout Name: EC50

Molecule: CSc1ccc(C#N)cc1-c1cc(=O)c2c(F)cc(F)cc2[nH]1
Target Or Test System: PPARG/RXRA LBD heterodimer (Homo sapiens)
Result: > 10 µM

Molecule: C[S+]([O-])c1ccc(C#N)cc1-c1cc(=O)c2c(F)cc(F)cc2[nH]1 (stereo not shown)
Target Or Test System: PPARG/RXRA LBD heterodimer (Homo sapiens)
Result: > 10 µM

Molecule: CS(=O)(=O)c1ccc(C#N)cc1-c1cc(=O)c2ccc(Cl)cc2[nH]1
Target Or Test System: PPARG/RXRA LBD heterodimer (Homo sapiens)
Result: 0.01 to 0.1 µM

Molecule: N#Cc1ccc([S+]([O-])CC(F)(F)F)c(-c2cc(=O)c3c(F)cc(F)cc3[nH]2)c1 (stereo not shown)
Target Or Test System: PPARG/RXRA LBD heterodimer (Homo sapiens)
Result: 1 to 10 µM

###

Target: PPARG/RXRA LBD heterodimer (Homo sapiens)
Construct: His-TEV-Q203-Y477; Uniprot ID P37231-2; made in house; host or cells: E. coli
Test: PPARγ-MED1 blockade assay (TR-FRET, biotinylated MED1 LxxLL peptide)
Type: binding
Settings: TR-FRET, 80 nM Rosiglitazone, 3 hours incubation
pEC50: −log10 of the molar value.

Smiles Representation: CC(C)S(=O)(=O)c1ccc(C#N)cc1-c1cc(=O)c2c(F)cc(F)cc2[nH]1
pEC50: < 5.00
--
Smiles Representation: CN1CCN(c2c(F)cc3[nH]c(-c4cc(C#N)ccc4S(C)(=O)=O)cc(=O)c3c2F)CC1
pEC50: 6.00 to 7.00
--
Smiles Representation: N#Cc1ccc(S(=O)(=O)C(F)(F)F)c(-c2cc(=O)c3c(F)cc(F)cc3[nH]2)c1
pEC50: > 8.00
--
Smiles Representation: N#Cc1ccc(S(=O)(=O)CC(F)(F)F)c(-c2cc(=O)c3c(F)cc(F)cc3[nH]2)c1
pEC50: 6.00 to 7.00

###

System: ANGPTL4, a PPARG target gene, in HT1197 (RXRA S427F mutation) cells
Experiment: Bladder cancer pharmacodynamic assay, HT1197 cell assay (quantitative PCR of PPARG target genes)
Type: cell-based
Details: Homo sapiens, 24 hours treatment, qPCR
Readout Name: EC50 (nM)

Smiles Representation: N#Cc1ccc(S(=O)(=O)C(F)(F)F)c(-c2cc(=O)c3c(F)cc(F)cc3[nH]2)c1
Target Or Test System: ANGPTL4, a PPARG target gene, in HT1197 (RXRA S427F mutation) cells
Quantity Unit: nM
Readout Number: 0.07
//
Smiles Representation: CS(=O)(=O)c1ccc(C#N)cc1-c1cc(=O)c2ccc(Cl)cc2[nH]1
Target Or Test System: ANGPTL4, a PPARG target gene, in HT1197 (RXRA S427F mutation) cells
Quantity Unit: nM
Readout Number: 0.9
//
Smiles Representation: CS(=O)(=O)c1ccc(C#N)cc1-c1cc(=O)c2c(F)cc(F)cc2[nH]1
Target Or Test System: ANGPTL4, a PPARG target gene, in HT1197 (RXRA S427F mutation) cells
Quantity Unit: nM
Readout Number: 1.3
//
Smiles Representation: CS(=O)(=O)c1ccc(C#N)cc1-c1cc(=O)c2c(F)cc(Cl)cc2[nH]1
Target Or Test System: ANGPTL4, a PPARG target gene, in HT1197 (RXRA S427F mutation) cells
Quantity Unit: nM
Readout Number: 1.6

###

Molecular target: PPARG/RXRA LBD heterodimer (Homo sapiens, UniProt P37231)
Construct: His-TEV-Q203-Y477: Uniprot ID P37231-2; made in house; host or cells: E. coli
Experiment: PPARγ-NCOR1 recruitment assay (TR-FRET, biotinylated NCOR1 ID2 peptide)
Assay type: binding
Settings: TR-FRET, 80 nM Rosiglitazone, 3 hours incubation; read-out: PPARG-NCOR recruitment assay EC50
Sequence (O75376 2251-2273 partner, one chain of several): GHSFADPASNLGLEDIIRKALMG
pEC50: −log10 of the molar value.

Molecule: CS(=O)(=O)c1ccc(C#N)cc1-c1cc(=O)c2c(F)cc(Cl)cc2[nH]1 [Example 10]
pEC50: 7.00 to 8.00
//
Molecule: CS(=O)(=O)c1ccc(C#N)cc1-c1cc(=O)c2ccc(Cl)cc2[nH]1 [Example 9]
pEC50: 7.00 to 8.00
//
Molecule: N#Cc1ccc(S(=O)(=O)C(F)(F)F)c(-c2cc(=O)c3c(F)cc(F)cc3[nH]2)c1 [Example 11]
pEC50: > 8.00
